test-target: Prostaglandin E synthase (Homo sapiens) (UniProt O14684)
Sequence (O14684 whole entry): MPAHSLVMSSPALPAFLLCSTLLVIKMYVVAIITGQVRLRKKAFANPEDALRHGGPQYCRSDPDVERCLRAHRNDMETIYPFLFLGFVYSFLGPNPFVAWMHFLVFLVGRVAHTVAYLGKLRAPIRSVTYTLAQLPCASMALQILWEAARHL
assay-overview: Inhibition of mPGES-1 isolated from microsomes of interleukin-1 beta-stimulated human A549 cells assessed as residual activity at 10 uM using PGH2 as substrate preincubated for 15 mins followed by substrate addition measured after 1 min by RP-HPLC analysis
Please go through the items and note down their Activity.
// note: answer is a bare numeric in %

What measured Activity goes with O=C(O)c1ccc(N(Cc2cccs2)S(=O)(=O)c2ccc(C(=O)O)cc2)cc1 ?
94.6

Another: CCCCN(c1ccc(C(=O)O)cc1)S(=O)(=O)c1ccc(-c2ccccc2)cc1
52.6

Another: Cc1ccc(S(=O)(=O)N(Cc2ccccc2)c2ccc(C(=O)O)cc2)cc1
91.3

Another: Cc1ccc(S(=O)(=O)N(Cc2ccccc2Cl)c2ccc(C(=O)O)cc2)cc1
71.7

Another: Cc1ccc(S(=O)(=O)N(Cc2ccc3ccccc3c2)c2ccc(C(=O)O)cc2)cc1
52.8

Another: CCCCN(c1ccc(C(=O)O)cc1)S(=O)(=O)c1ccc(C)cc1
79.9

Another: Cc1ccc(S(=O)(=O)N(Cc2cccs2)c2ccc(CC(=O)O)cc2)cc1
96.4

Another: O=C(O)c1ccc(N(Cc2ccoc2)S(=O)(=O)c2ccc(-c3ccccc3)cc2)cc1
56.8

Another: CCCCCCN(c1ccc(C(=O)O)cc1)S(=O)(=O)c1ccc(C)cc1
79.9

Another: O=C(O)c1ccc(N(Cc2cccs2)S(=O)(=O)c2ccc(F)cc2)cc1
96.5

Another: Cc1ccc(S(=O)(=O)N(Cc2c(F)cccc2Cl)c2ccc(C(=O)O)cc2)cc1
85.7

Another: O=C(O)c1ccc(N(Cc2cccs2)S(=O)(=O)c2ccc(-c3ccc4ccccc4c3)cc2)cc1
76.7

Another: Cc1ccc(S(=O)(=O)N(Cc2ccsc2)c2ccc(C(=O)O)cc2)cc1
90.7

Another: Cc1ccc(S(=O)(=O)N(Cc2cccc(Cl)c2)c2ccc(C(=O)O)cc2)cc1
74.1

Another: Cc1ccc(S(=O)(=O)N(Cc2cccs2)c2ccc(C(=O)O)cc2)cc1
92.5

Another: O=C(O)c1ccc(N(CC2CCCCC2)S(=O)(=O)c2ccc(F)cc2)cc1
88.9

Another: Cc1ccc(CN(c2ccc(C(=O)O)cc2)S(=O)(=O)c2ccc(C)cc2)cc1
82.8

Another: Cc1ccc(S(=O)(=O)N(Cc2ccc(Cl)cc2)c2ccc(C(=O)O)cc2)cc1
71.2

Another: Cc1ccc(S(=O)(=O)N(CC2CCCCC2)c2ccc(C(=O)O)cc2)cc1
91.6

Another: O=C(O)c1ccc(N(Cc2cccs2)S(=O)(=O)c2ccc(Cl)cc2)cc1
96.7

Another: COc1ccc(CN(c2ccc(C(=O)O)cc2)S(=O)(=O)c2ccc(C)cc2)cc1OC
95.7
